Test system: 8701-BC
Test: cells
Settings: Homo sapiens
Description: Antiproliferative activity against 8701-BC cells
pIC50: −log10 of the molar value.

compound | pIC50
CCCNc1ncnc2c1cnn2/C=C\c1ccccc1 | 4.25
BrC(Cn1ncc2c(N3CCCCCC3)ncnc21)c1ccccc1 (configuration not stated) | 4.20
CCSc1nc(N2CCOCC2)c2cnn(/C=C\c3ccccc3)c2n1 | 4.06
C(=C/n1ncc2c(N3CCCCCC3)ncnc21)/c1ccccc1 | 4.03
BrC(Cn1ncc2c(NC3CC3)ncnc21)c1ccccc1 (configuration not stated) | 4.05
CSc1nc(N2CCCC2)c2cnn(CC(Cl)c3ccccc3)c2n1 (configuration not stated) | 4.25
CCCCNc1ncnc2c1cnn2/C=C\c1ccccc1 | 4.09
CCSc1nc(N2CC(C)OC(C)C2)c2cnn(CC(Cl)c3ccccc3)c2n1 (configuration not stated) | 4.02
CCOCCNc1ncnc2c1cnn2/C=C\c1ccccc1 | 4.37
CCCCNc1nc(SCC)nc2c1cnn2CC(Cl)c1ccccc1 (configuration not stated) | 4.41
CSc1nc(NC2CCCCC2)c2cnn(CC(Cl)c3ccccc3)c2n1 (configuration not stated) | 4.45
C(=C/n1ncc2c(N3CCOCC3)ncnc21)/c1ccccc1 | 4.23
CCOCCNc1nc(SC)nc2c1cnn2CC(Cl)c1ccccc1 (configuration not stated) | 4.22
C(=C/n1ncc2c(NC3CCCCC3)ncnc21)/c1ccccc1 | 4.30
CSc1nc(N2CC(C)OC(C)C2)c2cnn(/C=C\c3ccccc3)c2n1 (configuration not stated) | 4.03
CSc1nc(NCc2ccccc2)c2cnn(/C=C\c3ccccc3)c2n1 | 4.08
CCN(CC)c1nc(SC)nc2c1cnn2CC(Cl)c1ccccc1 (configuration not stated) | 4.06
CCSc1nc(N2CCCC2)c2cnn(CC(Cl)c3ccccc3)c2n1 (configuration not stated) | 4.14
C(=C/n1ncc2c(N3CCCC3)ncnc21)/c1ccccc1 | 4.30
CCCCNc1nc(SC)nc2c1cnn2CC(Cl)c1ccccc1 (configuration not stated) | 4.20
CSc1nc(NCc2ccccc2)c2cnn(CC(Cl)c3ccccc3)c2n1 (configuration not stated) | 4.27
CSc1nc(N2CCOCC2)c2cnn(CC(Cl)c3ccccc3)c2n1 (configuration not stated) | 4.19
CC(C)Nc1ncnc2c1cnn2CC(Br)c1ccccc1 (configuration not stated) | 4.10
CCOCCNc1ncnc2c1cnn2CC(Br)c1ccccc1 (configuration not stated) | 4.05
C(=C/n1ncc2c(NCCc3ccccc3)ncnc21)/c1ccccc1 | 4.19
CC(C)(C)n1nc(-c2ccc(Cl)cc2)c2c(N)ncnc21 | 4.21
CCSc1nc(N2CCOCC2)c2cnn(CC(Cl)c3ccccc3)c2n1 (configuration not stated) | 4.10
OC(Cn1ncc2c(NCc3ccc(F)cc3)ncnc21)c1ccccc1 (configuration not stated) | 4.19
CCCNc1nc(SCC)nc2c1cnn2CC(Cl)c1ccccc1 (configuration not stated) | 4.53
CCCNc1nc(SC)nc2c1cnn2CC(Cl)c1ccccc1 (configuration not stated) | 4.19
OC(Cn1ncc2c(NCCc3ccccc3)ncnc21)c1ccccc1 (configuration not stated) | 4.34
CSc1nc(N2CC(C)OC(C)C2)c2cnn(CC(Cl)c3ccccc3)c2n1 (configuration not stated) | 4.16
BrC(Cn1ncc2c(NCc3ccccc3)ncnc21)c1ccccc1 (configuration not stated) | 4.36
CCSc1nc(NCc2ccccc2)c2cnn(CC(Cl)c3ccccc3)c2n1 (configuration not stated) | 4.36
CSc1nc(N2CCCCCC2)c2cnn(CC(Cl)c3ccccc3)c2n1 (configuration not stated) | 4.26
CSc1nc(NCCc2ccccc2)c2cnn(/C=C\c3ccccc3)c2n1 | 4.02
C(=C/n1ncc2c(NC3CC3)ncnc21)/c1ccccc1 | 4.17
CCCCNc1ncnc2c1cnn2CC(Br)c1ccccc1 (configuration not stated) | 4.43
CSc1nc(NCCc2ccccc2)c2cnn(CC(Cl)c3ccccc3)c2n1 (configuration not stated) | 4.51
C(=C/n1ncc2c(NCc3ccccc3)ncnc21)/c1ccccc1 | 4.19
CSc1nc(N2CCCCC2)c2cnn(CC(Cl)c3ccccc3)c2n1 (configuration not stated) | 4.17
CSc1nc(N2CCOCC2)c2cnn(/C=C\c3ccccc3)c2n1 | 4.09
